# Tested on: Human immunodeficiency virus 1
# TEST NAME: Antiviral activity against HIV-1 ADA infected in human MOLT-4 cells assessed as reduction in viral transmission to TZM-bl cells incubated for 48 hrs by luciferase based assay
# Assay type: functional, organism-based
# CONDITION DETAILS: Human immunodeficiency virus 1, ADA, MOLT-4, 48 h
PROPERTY: pIC50
Notebook: values listed as pIC50 are -log10 of the concentration (mol/L).

The following compounds have reported results that may help.
Q: // pIC50 lookup, key: NC[C@@H](NC(=O)c1ccc(-c2ccc(C(F)(F)F)cc2)[nH]1)c1ncc(CO)s1
A: 6.00

Q: Param item = NC[C@H](NC(=O)c1ccc(-c2cc(F)c(Cl)c(F)c2)[nH]1)c1nc(CO)cs1 ; retrieve measured pIC50.
A: 6.36

Now, please, on to the next compound.
Q: For the compound COc1cnc(-n2cnc(C)n2)c2[nH]cc(C(=O)C(=O)N3CCN(C(=O)c4ccccc4)CC3)c12 , what pIC50 is on record?
A: 6.40

====

# TEST NAME: Antiviral activity against HIV-1 3B infected in human MT2 cells assessed as reduction in viral infection pretreated for 30 mins before viral infection and measured after 4 days by ELISA based multi cycle infection assay
# Format: functional, cell-based
# CONDITION DETAILS: Human immunodeficiency virus 1, M:B_HXB2R
PROPERTY: IC50 (µM)
Number in µM, nothing else.

Some compounds with known IC50 results, for comparison:
Q: Item under review: CNC[C@H](NC(=O)c1ccc(-c2cc(F)c(Cl)c(F)c2)[nH]1)c1nc(CO)cs1 . Reported IC50?
A: 0.18

Q: Data request, read-out IC50, for Cc1c(F)cc(-c2ccc(C(=O)N[C@@H](CN)c3ncc(CO)s3)[nH]2)cc1F
A: 0.2

Q: Fill blank: measured IC50 of the compound NC[C@H](NC(=O)c1ccc(-c2cc(F)c(Cl)c(F)c2)[nH]1)c1nc(CO)c(CO)s1 is ____.
A: 3

Q: Query: IC50; subject: NC[C@H](NC(=O)c1ccc(-c2ccc(C(F)(F)F)c(F)c2)[nH]1)c1ncc(CO)s1
A: 0.25

Q: Quick one: IC50 of Cc1c(F)cc(-c2ccc(C(=O)N[C@@H](CN)c3nc(CO)cs3)[nH]2)cc1F ?
A: 0.18

Further cases:
Q: Fill in the blank: the reported IC50 of CNC[C@@H](NC(=O)c1ccc(-c2ccc(C(F)(F)F)cc2)[nH]1)c1nc(CO)cs1 is ____.
A: 0.6

Q: Data request, read-out IC50, for CNC[C@H](NC(=O)c1ccc(-c2ccc(C(F)(F)F)cc2)[nH]1)c1nc(CO)cs1
A: 0.1

Q: Recorded IC50 for NC[C@@H](NC(=O)c1ccc(-c2cc(F)c(Cl)c(F)c2)[nH]1)c1nc(CO)c(CO)s1 , please?
A: 3.34

Q: For NC[C@H](NC(=O)c1ccc(-c2ccc(C(F)(F)F)c(F)c2)[nH]1)c1nc(CO)c(CO)s1 , what is its reported IC50?
A: 3.6

====

Reported CC50 values are given for each entry in this list.
# System: TZM
# TEST NAME: Cytotoxicity against human TZM-bl cells assessed as reduction in cell viability incubated for 3 days by XTT assay
# Assay type: cell-based
# CONDITION DETAILS: tzm, 72 h, time 3 day
Quick reminder: number only, in µM, skip the unit.

Q: Endpoint output: CC50 of CNC[C@@H](NC(=O)c1ccc(-c2cc(F)c(Cl)c(F)c2)[nH]1)c1nc(CO)cs1 . Value?
A: 23.8

Further cases:
Q: Which CC50 value is on record for CNC[C@H](NC(=O)c1ccc(-c2ccc(C(F)(F)F)cc2)[nH]1)c1nc(CO)cs1 ?
A: 22.4

Q: Would you kindly share the measured CC50 for CNC[C@@H](NC(=O)c1ccc(-c2ccc(C(F)(F)F)cc2)[nH]1)c1nc(CO)cs1 ?
A: 23.5
